Target: T1, human CD8 on human pan T cells (human, UniProt P01732 22-235; P10966 22-210)
T1 construct: Native CD8 on the CD4-negative population of human pan T cells
T1 sequence (P01732 22-235, chain 1 of 2): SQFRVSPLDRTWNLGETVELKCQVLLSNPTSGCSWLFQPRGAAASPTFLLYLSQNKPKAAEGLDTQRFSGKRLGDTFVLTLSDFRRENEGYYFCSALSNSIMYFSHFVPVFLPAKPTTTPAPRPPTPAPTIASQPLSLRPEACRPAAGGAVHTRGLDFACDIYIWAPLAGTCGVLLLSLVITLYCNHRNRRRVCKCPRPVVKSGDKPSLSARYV
T1 sequence (P10966 22-210, chain 2 of 2): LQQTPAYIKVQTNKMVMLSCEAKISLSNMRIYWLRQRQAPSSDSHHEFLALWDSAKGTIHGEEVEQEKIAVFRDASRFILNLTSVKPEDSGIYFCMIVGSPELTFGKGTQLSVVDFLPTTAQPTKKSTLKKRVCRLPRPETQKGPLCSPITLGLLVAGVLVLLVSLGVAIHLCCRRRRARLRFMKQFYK
Assay: flow cytometry, 20 nM mAb on human pan T cells
quantity: Cell Binding to Human PanT Signal/Background (of CD4 negative population)

[
  {
    "binder": "CD8B319 (antibody, human IgG1, kappa, V domains shown, full-length human IgG1, kappa) VH: QVQLKESGPELKKPGETVKISCKASGYSFTAYYMHWVKQSPEKSLEWIGEINPSAGGTTYNQKFKAKATLTVDKSSSTAFIQLKSLTSEDSAVYYCARWTNPFDYWGQGTTLTVSS VL: DIVMTQSQKFMSTTVGDRVSITCKASQNVGTAVAWYQQKPGQSPKLLIYSASYRYTGVPDRFTGSGSGTHFTLTISNIQSEDLADYFCQQYNNYLTFGSGTKLEIKR",
    "value.measured": 16
  },
  {
    "binder": "CD8B213 (antibody, human IgG1, kappa, V domains shown, full-length human IgG1, kappa) VH: EVQLQQSGPELVKPGDSMKMSCKASGYIFTDYYMDWVKQSHGKSLEWIGYIYPNNGITSYNQKFKGRATLTIDKSSSTAYMELHSLTSEDSAVYYCARSIYYDHGGGFPYWGQGTSVTVSS VL: DIVLTQSQKFMSTSVGDRVSVTCKASQNVDKYVAWYQQKPGQSPKALIYSASYRYSGVPDRFTGSGSGTDFTLTISNVQSEDLAEYFCQQYNTYPSFGSGTKLEMKR",
    "value.measured": 827
  },
  {
    "binder": "CD8B311 (antibody, human IgG1, kappa, V domains shown, full-length human IgG1, kappa) VH: QVQLKESGPELVKPGASVKLSCKASGYTFTSYWMHWVKQRPGQGLEWIGMIHPNSGSTNYNEKFKSKATLTVDKSSSTAYMQLSSLTSEDSAVYYCARCGYDGAWFAYWGQGTSVTVSS VL: DIQMTQTTSSLSASLGDRVTISCSASQGISNCLNWYQQKPDGTVKLLIHYTSSLHSGVPSRFSGGGSGTHYSLTISNLEPEDIATYYCQQYSKVPYTFGSGTKLEIKR",
    "value.measured": 1
  }
]
